// provenance: PubChem BioAssay AID1996

Measured solubility kinetic, listed per entry.
condition.info: buffer; pH 7.4; 200.0 µM

{"compound": "Cc1ccc(C(=O)Nc2ccccc2N2CCCC2)s1", "solubility kinetic": "> 43 µg/mL"}
{"compound": "O=C(NCCN1CCN(C(=O)c2cccc(OC(F)F)c2)CC1)c1cccc(OC(F)F)c1", "solubility kinetic": "> 70.4 µg/mL"}
{"compound": "O=C1N(c2ccccc2)c2ccccc2C1(O)C(F)(F)F (stereo not drawn)", "solubility kinetic": "> 44 µg/mL"}

====

condition.info: buffer; pH 7.4; 200.0 µM
Measured solubility kinetic, listed per entry.
measurement.type: solubility kinetic

{"compound": "N#Cc1c(N)nc(Sc2ccc(Cl)cc2)c(C#N)c1-c1ccccc1Cl", "result": "< 0.2 µg/mL"}
{"compound": "CC(CNC(=O)c1ccccc1Cl)NC(=O)c1ccccc1Cl (centres undefined)", "result": "> 52.7 µg/mL"}
{"compound": "COc1ccc(NC(=O)c2ccccc2NC(=O)C2CC=CCC2C(=O)O)cc1 (centres undefined)", "result": "> 59.2 µg/mL"}
{"compound": "COc1cc(C(=O)NC2CCCCCCC2)cc(OC)c1OC", "result": "< 0.7 µg/mL"}
